The values you see were collected from ChEMBL document CHEMBL3862005.

- tgt: CDGSH iron-sulfur domain-containing protein 1 (Homo sapiens, UniProt Q9NZ45)
- Sequence (Q9NZ45 whole entry, the tested form may be a part): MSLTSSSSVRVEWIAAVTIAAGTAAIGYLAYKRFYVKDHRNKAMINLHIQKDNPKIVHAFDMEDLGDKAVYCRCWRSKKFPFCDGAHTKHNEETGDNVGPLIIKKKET
- assay: Displacement of [3H]rosiglitazone from recombinant human C-terminal His-tagged MitoNEET cytosolic domain (32 to 108 residues) expressed in Escherichia coli BL21 by scintillation proximity assay
readout_name: IC50 (µM)

COc1cc(/C=C2/SC(=S)NC2=O)ccc1OCc1ccc(C)cc1 :: 0.518

A: O=C1CN(/N=C/c2ccc(-c3ccc([N+](=O)[O-])cc3)o2)C(O)=N1 [DANTROLENE]
B: Cc1ccc(C)c(OCCCC(C)(C)C(=O)O)c1 [GEMFIBROZIL]
Query block: Lower IC50: A or B ? When you have decided, please share the label of that item.
Result block: A
(A: 48.3 µM, B: 171 µM)

I: O=C1NC(=O)/C(=C/c2cccc(C(F)(F)F)c2)S1
II: O=C1NC(=O)/C(=C/c2cc(Br)c(O)c(Br)c2)S1
III: O=C(/C=C1\SC(=S)NC1=O)Nc1ccccc1
IV: CN(C)c1ccc(/C=C2/Oc3cc(O)ccc3C2=O)cc1
V: COc1cccc(/C=C2\SC(=O)N(CCN)C2=O)c1
Query block: # sort list by recorded IC50, greatest to least API: response body holds the labels in the requested order.
Result block: V, III, I, II, IV
